Origin of the recorded values: the EternaBench riboswitch data

System: MS2 coat protein
protocol: apparent Kd, MS2 coat protein; higher = weaker binding; RNA-MaP array
condition-context: designed as: OFF switch for flavin mononucleotide; no ligand
Provide the reported apparent Kd of each item.
Answers are plain numbers, in nM.

# annotated cases, reported apparent Kd shown
CAGUGCGACUCAGGAUAUCAGAACACUAAGGCGUGAGAAGGGAGAACGACACAUGAGGAUCACCCAUGUUAGAGGGAAUGCAUG | 37.6
GUUGCCCAGCGAGGAUAUGUGAACCGGCUGCUCACAGAAGGCGCAAAUGAUUUUCAUUAUUCCCGACAUGAGGAUCACCCAUGU | 21.9

Record apparent Kd per entry; entries follow.
1. GUAUGUGGUGAGGAUAUCCACCCGCGGGUAUAUGGAGAAGGCACUACAUGAGGAUCACCCAUGUUAACUUGCCA
2. AAAAUCUGGUGAGGAUAUUGUUGAUGAUACAAACAAGAAGGCACGUUGACAUAGCGGGACAACAUGAGGAUCACCCAUGUCACU
3. UUGAUAGCAGGAUAUACAUGAGGAUCACCCAUGUACAGGCAAAAGGGAACUGACCCACGUAGAAGGGCUUCGCA
4. GUCAUUGCGGAGGAUAUAAAGCAAACCAAGAUGUUAGAAGGCCGGACAUGAGGAUCACCCAUGUGAUUGCACGC

[10.1, 46.6, 10.8, 17.6]

====

System: MS2 coat protein
protocol: apparent Kd, MS2 coat protein; higher = weaker binding; RNA-MaP array; tryptophan 2.4 mM where present
condition-context: ligand present: tryptophan; designed as: ON switch for tryptophan
Response field class: enum, chosen by comparing apparent Kd against low range = under 20 nM, mid range = from 20 nM up to 60 nM, high range = 60 nM and over

UGUCAGCGAAAGUUGACAUGUCUUACCGGUCGAGGACCGGUACGGCCGCCACUCGAUCUCUCGCACAUGAGGAUCACCCAUGUCG | low range
GGGUACAUCGCGGCCGCCACUUAUGUAAAUACAUGAGGAUCACCCAUGUCGAUGGAGACAUCGGAAAGGACCGGGUGAUGUACCG | mid range
AGAGCAUUGACGGCCGCCACUCAUGUCACAUGAGGAUCACCCAUGUGAUGGGUGAUAGCCCGGUCGAGGACCGGGUCAAUGCUCA | low range
AGCAACAAGUCGGCCGCCACUCAUUUAACAUGAGGAUCACCCAUGUGAAUAACAUGGUUGUAAUAGAGGACCGGGACAGUUGCAU | high range
CUACAUUUGUAGAAACCGGUCAACAAUAAUCGAGGACCGGUACGGCCGCCACUCGAUGUGAAAUCACAUGAGGAUCACCCAUGUA | low range

Continue with the sequence presented below.
Category of `CAAAAUAUAACGGCCGCCACUUACUCAUGAGGUAACAACAUGAGGAUCACCCAUGUUUGAGGAUCAAGGACCGGGUUAUAUUUUG` : low range

====

System: MS2 coat protein
protocol: apparent Kd, MS2 coat protein; higher = weaker binding; RNA-MaP array; FMN 200 µM where present
condition-context: designed as: ON switch for flavin mononucleotide; no ligand
Cut-off 200 nM on apparent Kd, inclusive. At or above means 1 (yes); below means 0 (no).

CUUAGGUGUACAUGAGGAUCACCCAUGUCCCUGGUCAUUAGACAGGAUAUAUGGGCGGUCGCUUCAUAGAAGGGUUAAAUGGGU | 1 (yes)
GGAGCACACAUUAACAUGAGGAUCACCCAUGUCAAUAGACAUGAGGAUAUGGAUCCGAAAAGGAUCCAGAAGGCAUGGUGCUCC | 0 (no)
CGCGAACAGGCUAACAUGAGGAUCACCCAUGUGGACUCAUGGUAGGAUAUCGGGAAGGAGGAAACCGAGAAGGGCCGGUGAGCU | 0 (no)

Continue with the sequence presented below.
Decide: apparent Kd of `UUUAGUUGCGGGCAGGAUAUGUAUUAAAAUACAUGAGGAUCACCCAUGUGCGGGUAUAACACCCGACAGAAGGGCCAAUCGCGAC` >= 200 nM? 1 (yes)
